FYI, the data here is from patent US20230099031A1.

Catalogue of EC50 values
# study-system: IKZF1 (Homo sapiens, UniProt Q13422+Q96SW2)
# Sequence (Q13422 1-477 isoform Q13422-7): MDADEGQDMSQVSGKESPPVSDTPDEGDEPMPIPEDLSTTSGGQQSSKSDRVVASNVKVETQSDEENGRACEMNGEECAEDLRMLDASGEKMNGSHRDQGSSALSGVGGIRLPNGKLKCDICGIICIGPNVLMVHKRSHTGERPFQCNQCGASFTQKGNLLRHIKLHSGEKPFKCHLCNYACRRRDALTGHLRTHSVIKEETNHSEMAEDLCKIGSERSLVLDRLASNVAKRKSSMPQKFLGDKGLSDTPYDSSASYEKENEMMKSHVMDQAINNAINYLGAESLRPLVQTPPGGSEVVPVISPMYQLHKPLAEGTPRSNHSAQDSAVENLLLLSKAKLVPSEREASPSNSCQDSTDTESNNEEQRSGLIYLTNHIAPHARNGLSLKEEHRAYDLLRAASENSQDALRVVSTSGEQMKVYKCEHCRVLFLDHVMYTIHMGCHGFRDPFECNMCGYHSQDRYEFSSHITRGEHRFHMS
# Sequence (Q96SW2 whole entry, canonical isoform): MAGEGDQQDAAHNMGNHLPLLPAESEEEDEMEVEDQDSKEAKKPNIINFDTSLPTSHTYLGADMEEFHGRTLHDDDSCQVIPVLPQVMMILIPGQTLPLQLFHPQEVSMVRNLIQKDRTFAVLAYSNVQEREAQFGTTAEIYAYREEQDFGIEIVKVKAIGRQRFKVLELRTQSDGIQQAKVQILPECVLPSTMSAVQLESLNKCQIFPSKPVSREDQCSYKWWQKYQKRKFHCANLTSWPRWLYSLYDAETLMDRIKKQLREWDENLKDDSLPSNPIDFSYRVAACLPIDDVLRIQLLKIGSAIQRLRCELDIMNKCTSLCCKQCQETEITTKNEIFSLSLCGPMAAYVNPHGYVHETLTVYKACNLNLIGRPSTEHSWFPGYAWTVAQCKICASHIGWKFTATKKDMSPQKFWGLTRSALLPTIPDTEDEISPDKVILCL
# run-description: Recruitment Assay (MAPPIT-like): IKZF1 recruitment, pSEL-CRBN+pMG1-IKZF1(isoform 7)
# condition-label: recruitment of IKZF1, protocol of Example 2; read-out: EC50_IKZF1
property-label: EC50 (nM)

compound="O=C1CCCC(N2Cc3c(cccc3[N+](=O)[O-])C2=O)C(=O)N1 (centres unmarked)" property_label=EC50 observed_result=1410
compound="Nc1cccc2nnn(C3CCC(=O)NC3=O)c(=O)c12 (centres unmarked)" property_label=EC50 observed_result=122
compound="O=C1CCC(N2Cc3c(cccc3-c3ccccc3)C2=O)C(=O)N1 (centres unmarked)" property_label=EC50 observed_result=1240
compound="O=C(CNc1ccc2c(c1)CN(C1CCC(=O)NC1=O)C2=O)NCc1ccccc1 (centres unmarked)" property_label=EC50 observed_result=1150
compound="O=C(O)CN1CCN(Cc2ccc(COc3cccc4c3CN(C3CCC(=O)NC3=O)C4=O)cc2)CC1 (centres unmarked)" property_label=EC50 observed_result=4680
compound="Cc1ccc2c(c1)CN(C1CCC(=O)NC1=O)C2=O (centres unmarked)" property_label=EC50 observed_result=1610
compound="O=C1CCC(N2Cc3cc(NCC(=O)Nc4ccccc4)ccc3C2=O)C(=O)N1 (centres unmarked)" property_label=EC50 observed_result=1330
compound="O=C1CCC(N2Cc3c(ccc4c3OCO4)C2=O)C(=O)N1 (centres unmarked)" property_label=EC50 observed_result=569
